Field: pest or weed control at 140 g/ha. Provide a value for each of the compounds that follow.
tested on: test plant species; assay: Post-emergent herbicidal activity test (greenhouse, foliar spray, visual growth reduction); type: in vivo; settings: post-emergence, 336 h, canada thistle (Cirsium arvense), 14 Days After Application, 140 g ai/ha, read-out: Visual Growth Reduction (%) CIRAR

COC(=O)c1nc(-c2cc(OC)c3c(c2)OCO3)c(F)cc1Cl = 0 to 29%
O=C(O)c1nc(-c2cc(F)c(C(F)(F)F)cc2Cl)c(F)cc1Cl = 95 to 100%
COC(=O)c1nc(-c2cc3nonc3cc2Cl)ccc1Cl = 30 to 44%
O=C(O)c1nc(-c2ccc(C(F)(F)F)c(C(F)F)c2F)c(F)cc1Cl = 75 to 84%
COC(=O)c1nc(-c2cc(C)c(C(F)(F)F)cc2F)c(F)cc1Cl = 0 to 29%

Return reported pest or weed control at 140 g/ha values for all items listed beneath this line.
1. COc1cc(C(F)(F)F)cc(Cl)c1-c1ccc(Cl)c(C(=O)O)n1
2. CCCOC(=O)c1nc(-c2ccc(Cl)c(OC)c2F)ccc1Cl
3. COC(=O)c1nc(-c2cc(C)c(C(F)(F)F)cc2F)ccc1Cl
4. COC(=O)c1nc(-c2cc(F)c(C(F)(F)F)cc2Cl)c(F)cc1Cl
5. COC(=O)c1nc(-c2c(Cl)cccc2OC)c(F)cc1Cl

95 to 100%
60 to 74%
0 to 29%
95 to 100%
0 to 29%

// each listed compound needs a value for pest or weed control at 140 g/ha
1. COC(=O)c1nc(-c2cc(C#N)c(C(F)(F)F)cc2Cl)c(F)cc1Cl
2. COC(=O)c1nc(-c2ccc(C(F)(F)F)c(F)c2)c(F)cc1Cl
3. COC(=O)c1nc(-c2ccc(C3CC3)c(F)c2)ccc1Cl

1. 75 to 84%
2. 0 to 29%
3. 0 to 29%

Quick batch: pest or weed control at 140 g/ha for everything below.
1. COC(=O)c1nc(-c2cc(F)c(C(F)(F)F)cc2F)ccc1Cl
2. C=C(C)COC(=O)c1nc(-c2ccc(C(F)(F)F)cc2Cl)ccc1Cl

["45 to 59%", "85 to 94%"]

---

Give pest or weed control at 140 g/ha for every item shown.
system: test plant species; assay: Post-emergent herbicidal activity test (greenhouse, foliar spray, visual growth reduction); type: in vivo; details: post-emergence, 336 h, CIRAR: canada thistle (Cirsium arvense), 140 g ai/ha, 14 days after application, read-out: Visual Growth Reduction (%) 14 Days After Application, CIRAR

Consider the worked cases shown below.
COC(=O)c1nc(-c2ccc(C(F)(F)F)cc2Cl)c(Cl)cc1Cl [F103] = 85 to 94%
COC(=O)c1nc(-c2c(Cl)cc(C(F)(F)F)cc2S(C)(=O)=O)ccc1Cl [F138] = 60 to 74%
COc1c(Cl)ccc(-c2ccc(Cl)c(C(=O)O)n2)c1F [F78] = 60 to 74%

Please look at the items below and tell me pest or weed control at 140 g/ha for each one, in order.
1. COC(=O)c1nc(-c2ccc(OS(C)(=O)=O)cc2)c(F)cc1Cl [F159]
2. COC(=O)c1nc(-c2cc3c(cc2F)OC(F)(F)O3)c(Cl)cc1Cl [F174]
3. COC(=O)c1nc(-c2ccc(OC(C)(C)C)cc2Cl)ccc1Cl [F36]
4. CCOC(=O)c1nc(-c2ccc(Cl)c(OC)c2F)cc(OCC)c1N [F77]
5. O=C(O)c1nc(-c2ccc3occc3c2)c(F)cc1Cl [F198]

["30 to 44%", "0 to 29%", "0 to 29%", "0 to 29%", "0 to 29%"]

For each of the items listed, what is its pest or weed control at 140 g/ha?
1. O=C(O)c1nc(-c2ccc(SC(F)(F)F)cc2Cl)c(Cl)cc1Cl [F127]
2. O=C(O)c1nc(-c2cc(Br)c(C(F)(F)F)cc2Cl)c(F)cc1Cl [F181]
3. O=C(OCc1ccncc1)c1nc(-c2ccc(C(F)(F)F)cc2Cl)ccc1Cl [F81]
4. COC(=O)c1nc(-c2ccc(C#N)cc2)c(F)cc1Cl [F168]
5. O=C(O)c1nc(-c2ccc3[nH]ccc3c2)c(F)cc1Cl [F199]
6. N#Cc1cc(C(F)(F)F)cc(Cl)c1-c1ccc(Cl)c(C(=O)O)n1 [F162]

1. 85 to 94%
2. 75 to 84%
3. 95 to 100%
4. 0 to 29%
5. 0 to 29%
6. 85 to 94%

---

system: test plant species; experiment: Post-emergent herbicidal activity test (greenhouse, foliar spray, visual growth reduction); type: in vivo; settings: post-emergence, 336 h, STEME: common chickweed (Stellaria media), 140 g ai/ha, 14 days after application, read-out: Visual Growth Reduction (%) 14 Days After Application, STEME
Task for the reader: assign each of the following compounds its reported pest or weed control at 140 g/ha.

COC(=O)c1nc(-c2ccc(Cl)cc2F)ccc1Cl = 30 to 44%

Each of the following entries comes with a recorded value; kindly state pest or weed control at 140 g/ha for each.
1. COC(=O)c1nc(-c2cc3c(cc2Cl)OCO3)c(F)cc1Cl
2. COC(=O)c1nc(-c2ccc3c(c2)C(F)(F)OC(F)(F)O3)c(Cl)cc1Cl

["0 to 29%", "0 to 29%"]

For every listed record, write down its pest or weed control at 140 g/ha.
1. COC(=O)c1nc(-c2cc3nonc3cc2F)c(Cl)cc1Cl
2. COC(=O)c1nc(-c2c(Cl)cc(C(F)(F)F)cc2C#N)ccc1Cl

0 to 29%
0 to 29%

---

What pest or weed control at 140 g/ha was measured for each of the following?
test system: test plant species; experiment: Post-emergent herbicidal activity test (greenhouse, foliar spray, visual growth reduction); type: in vivo; settings: post-emergence, 336 h, TRZAS: wheat, spring (Triticum aestivum), 140 g ai/ha, 14 days after application, read-out: Visual Growth Reduction (%) 14 Days After Application, TRZAS

Examples from the recorded data:
COC(=O)c1nc(-c2ccc(C(F)(F)F)cc2Cl)ccc1F = 0 to 29%
COC(=O)c1nc(-c2ccc(Cl)nc2Cl)ccc1Cl = 0 to 29%
O=C(O)c1nc(-c2ccc3occc3c2)c(F)cc1Cl = 0 to 29%
Cc1cnc(-c2ccc(Cl)c(C(=O)O)n2)c(F)c1 = 0 to 29%
COC(=O)c1nc(-c2ccc(C(F)(F)F)c([S+](C)[O-])c2Cl)ccc1Cl (stereo not drawn) = 0 to 29%

Give me pest or weed control at 140 g/ha for each of these molecules, listed below.
1. COC(=O)c1nc(-c2ccc(OS(=O)(=O)C(F)(F)F)cc2Cl)ccc1Cl
2. O=C(O)c1nc(-c2cc(Br)c(C(F)(F)F)cc2Cl)c(F)cc1Cl
3. COC(=O)c1nc(-c2c(C=O)cc(OC)c(O)c2Cl)ccc1Cl

0 to 29%
45 to 59%
0 to 29%

Take each entry in turn and give its pest or weed control at 140 g/ha.
1. COC(=O)c1nc(-c2ccc3c(c2)OC(F)(F)O3)ccc1Cl
2. COC(=O)c1nc(-c2ccc(C(F)(F)F)cc2Cl)ccc1C

1. 0 to 29%
2. 0 to 29%

---

System: test plant species
Experiment: Post-emergent herbicidal activity test (greenhouse, foliar spray, visual growth reduction)
Format: in vivo
Conditions: post-emergence, 336 h, SETFA: giant foxtail (Setaria faberi), 140 g ai/ha, 14 days after application, read-out: Visual Growth Reduction (%) 14 Days After Application, SETFA
Excerpt: Post-emergent Test: Seeds or nutlets of the desired test plant species were planted in Sun Gro Metro-Mix® 360 planting mixture, which typically has a pH of 6.0 to 6.8 and an organic matter content of about 30 percent, in plastic pots with a surface area of 64 square centimeters. In some aspects, to ensure good germination and healthy plants, a fungicide treatment and/or other chemical or physical treatment was applied. […]
quantity-measured: pest or weed control at 140 g/ha

O=C(OCc1cccnc1)c1nc(-c2ccc(C(F)(F)F)cc2Cl)ccc1Cl = 95 to 100%
COC(=O)c1cc(Cl)cc(-c2ccc(C(F)(F)F)cc2Cl)n1 = 0 to 29%
COC(=O)c1nc(-c2ccc(C(F)(F)F)cc2Cl)c(O)cc1Cl = 0 to 29%
O=C(O)c1nc(-c2ccc(C(F)(F)F)cc2Cl)ccc1Cl = 85 to 94%
COC(=O)c1nc(-c2ccc(C(F)(F)F)cc2Cl)ncc1OC = 0 to 29%
COC(=O)c1nc(-c2ccc(Cl)c(C)c2F)ccc1Cl = 0 to 29%
COC(=O)c1nc(-c2ccc(C(F)(F)F)cc2OC)c(F)cc1F = 75 to 84%
COC(=O)c1nc(-c2c(Cl)cccc2OC)c(F)cc1Cl = 0 to 29%
COC(=O)c1cc(Cl)cc(-c2ccc(Cl)cc2Cl)n1 = 0 to 29%

Shift focus to the following entry.
So what's the measured pest or weed control at 140 g/ha for this one? C#Cc1cc(-c2nc(C(=O)OC)c(Cl)cc2F)c(Cl)cc1C(F)(F)F 85 to 94%
